Test system: CEM-SS
Experiment Summary: Cytotoxicity against Human immunodeficiency virus 1 3B infected human CEM-SS cells
Type: functional
Test Parameters: read-out: TC50 (the source's name)
Peptide text beside a SMILES is read from it.
Value Type: CC50 (µM)
Give bare numbers, in µM.

stdin: State its CC50 on CEM-SS: CC[C@H](C)[C@H](NC(=O)[C@H](CCCCN)NC(=O)[C@H](CCCCN)NC(=O)[C@H](Cc1ccccc1)NC(=O)[C@H](CC(C)C)NC(=O)[C@H](CCCCN)NC(=O)[C@H](CCCCN)NC(=O)[C@H](Cc1ccccc1)NC(=O)[C@H](CCCCN)NC(=O)[C@H](CCCCN)NC(=O)[C@H](CCCNC(=N)N)NC(=O)[C@H](Cc1ccccc1)NC(=O)[C@H](CCCNC(=N)N)NC(=O)[C@H](CCCCN)NC(=O)[C@H](Cc1ccccc1)NC(=O)[C@H](CCCNC(=N)N)NC(=O)CN)C(=O)N[C@@H](CO)C(=O)O (H-GRFKRFRKKFKKLFKKIS-OH)
stdout: 8.45

* * *

Experiment Summary: Therapeutic index, TC50 for Human immunodeficiency virus 1 3B infected human CEM-SS cells to EC50 for immunodeficiency virus 1 3B
Type: cell-based
Test Parameters: CEM-SS cells infected with HIV-1 3B, read-out: TI
Peptide text beside a SMILES is read from it.
Values of selectivity ratio strictly less than 9 map to 1 (yes), and values of at least 9 map to 0 (no).

These recorded examples may help you get a feel for the data.
{"Molecule": "CC[C@H](C)[C@H](NC(=O)[C@H](CCCCN)NC(=O)[C@H](CCCCN)NC(=O)[C@H](Cc1ccccc1)NC(=O)[C@H](CC(C)C)NC(=O)[C@H](CCCCN)NC(=O)[C@H](CCCCN)NC(=O)[C@H](Cc1ccccc1)NC(=O)[C@H](CCCCN)NC(=O)[C@H](CCCCN)NC(=O)[C@H](CCCNC(=N)N)NC(=O)[C@H](Cc1ccccc1)NC(=O)[C@H](CCCNC(=N)N)NC(=O)[C@H](CCCCN)NC(=O)[C@H](Cc1ccccc1)NC(=O)[C@H](CCCNC(=N)N)NC(=O)CN)C(=O)N[C@@H](CO)C(=O)O (H-GRFKRFRKKFKKLFKKIS-OH)", "Label Value": "0 (no)"}
{"Molecule": "CC[C@H](C)[C@H](NC(=O)[C@H](CCCCN)NC(=O)[C@H](CCCCN)NC(=O)[C@H](Cc1ccccc1)NC(=O)[C@H](CC(C)C)NC(=O)[C@H](CCCCN)NC(=O)[C@H](CCCCN)NC(=O)[C@H](Cc1ccccc1)NC(=O)[C@@H]1CCCN1C(=O)[C@H](CCCCN)NC(=O)[C@H](CCCNC(=N)N)NC(=O)[C@H](Cc1ccccc1)NC(=O)[C@H](CCCNC(=N)N)NC(=O)[C@H](CCCCN)NC(=O)[C@H](Cc1ccccc1)NC(=O)[C@H](CCCNC(=N)N)NC(=O)CN)C(=O)N[C@@H](CO)C(=O)O (H-GRFKRFRKPFKKLFKKIS-OH)", "Label Value": "1 (yes)"}
{"Molecule": "CC[C@H](C)[C@H](NC(=O)[C@H](CCCCN)NC(=O)[C@H](CCCCN)NC(=O)[C@H](Cc1ccccc1)NC(=O)[C@H](CC(C)C)NC(=O)[C@H](CCCCN)NC(=O)[C@H](CCCCN)NC(=O)[C@H](NC(=O)[C@H](CCCCN)NC(=O)[C@H](CCCCN)NC(=O)[C@H](CCCNC(=N)N)NC(=O)[C@H](NC(=O)[C@H](CCCNC(=N)N)NC(=O)[C@H](CCCCN)NC(=O)[C@H](Cc1ccccc1)NC(=O)[C@H](CCCNC(=N)N)NC(=O)CN)c1ccccc1)c1ccccc1)C(=O)N[C@@H](CO)C(=O)O", "Label Value": "0 (no)"}

Now take the following molecule into account.
stdin: Confirm or reject: selectivity ratio of CC[C@H](C)[C@H](NC(=O)[C@H](CCCNC(=N)N)NC(=O)[C@H](CCC(N)=O)NC(=O)[C@@H](NC(=O)[C@@H](NC(=O)[C@H](CCCNC(=N)N)NC(=O)[C@H](CCCCN)NC(=O)[C@@H](N)Cc1ccccc1)[C@@H](C)CC)C(C)C)C(=O)N[C@@H](CCCCN)C(=O)N[C@@H](CC(=O)O)C(=O)N[C@@H](Cc1ccccc1)C(=O)N[C@@H](CC(C)C)C(=O)N[C@@H](CCCNC(=N)N)C(=O)O (H-FKRIVQRIKDFLR-OH) lies strictly below 9
stdout: 1 (yes)
